- Measured on: bacterial tyrosinase (indigenously isolated from Bacillus subtilis NCTC 10400)
- Assay protocol: Tyrosinase inhibition assay (dopachrome formation, OD 475 nm)
- Experimental parameters: L-tyrosine substrate, 25 °C, triplicates, mean ± SD
pIC50: −log10 of the molar value.
Property name: pIC50

Check out these entries, answers already filled in.
*Q* // fetch pIC50; item: CCN(CC)C(=O)CSc1nnc(-c2cc3ccccc3o2)o1 [Compound 5j] ; system: bacterial tyrosinase (indigenously isolated from Bacillus subtilis NCTC 10400)
*A* 4.31

*Q* Enter recorded pIC50 with bacterial tyrosinase (indigenously isolated from Bacillus subtilis NCTC 10400) for O=C(CSc1nnc(-c2cc3cc(Br)ccc3o2)o1)Nc1ccccc1Cl [Compound 5b] here.
*A* 4.91

[a] O=C1O[C@H]([C@@H](O)CO)C(O)=C1O [Ascorbic acid, reference compound]
[b] COc1ccc(OC)c(NC(=O)CSc2nnc(-c3cc4cc(Br)ccc4o3)o2)c1 [Compound 5i]
[c] COc1ccccc1NC(=O)CSc1nnc(-c2cc3cc(Br)ccc3o2)o1 [Compound 5f]
*Q* Rank by pIC50 (largest to smallest). Output spec: a listing of the labels in the requested order.
*A* a, c, b

[a] O=C(CSc1nnc(-c2cc3cc(Br)ccc3o2)o1)Nc1ccccc1F [Compound 5a]
[b] Cc1ccc(NC(=O)CSc2nnc(-c3cc4cc(Br)ccc4o3)o2)c(C)c1 [Compound 5h]
*Q* Larger number for pIC50: a , or b ? Mark your answer with the label of the selected entry.
*A* a
(a: 4.96, b: 4.44)

[P] O=C(CSc1nnc(-c2cc3cc(Br)ccc3o2)o1)Nc1ccc(Cl)c(Cl)c1 [Compound 5c]
[Q] O=C(CSc1nnc(-c2cc3cc(Br)ccc3o2)o1)Nc1ccccc1 [Compound 5g]
*Q* In the pair P and Q , the larger recorded pIC50 belongs to which? // return label of chosen record
*A* P

[a] O=C(CSc1nnc(-c2cc3cc(Br)ccc3o2)o1)Nc1ccc(F)cc1 [Compound 5d]
[b] Cc1ccc(NC(=O)CSc2nnc(-c3cc4cc(Br)ccc4o3)o2)cc1C [Compound 5e]
*Q* Of a and b , which one carries the higher reported pIC50? Select an item and report its label.
*A* a
(a: 4.81, b: 4.60)
